Hi there, I'd appreciate the recorded kinase still bound, per cent of control for every entry that follows.
- Tested On: NTRK3 (human)
- Procedure Details: KINOMEscan competition binding
- Test Context: compound 1.0 µM
# unit: % | format: bare number

Ask | # lookup: kinase still bound, per cent of control of Cc1cc(NC(=O)c2cccc(NC(=O)/C=C/CN(C)C)c2)ccc1Nc1nccc(-c2cccnc2)n1
Reply | 79

Ask | Further, for CN(C)C/C=C/C(=O)Nc1cccc(C(=O)Nc2ccc(Nc3nccc(-c4c(-c5ccccc5)nn5ccccc45)n3)cc2)c1 ?
Reply | 84

Ask | Also, CN(C)C/C=C/C(=O)Nc1cccc(C(=O)Nc2ccc(Nc3nccc(-c4cccnc4)n3)cc2)c1 please.
Reply | 97

Ask | // query: CN(C)C/C=C/C(=O)Nc1cccc(C(=O)Nc2ccc(Nc3nccc(/C(C#N)=C4\Nc5ccccc5S4)n3)cc2)c1
Reply | 97

###

IC50 tested on MAPK9 (human) (UniProt P45984): recorded values
Sequence (P45984 whole entry, looked up): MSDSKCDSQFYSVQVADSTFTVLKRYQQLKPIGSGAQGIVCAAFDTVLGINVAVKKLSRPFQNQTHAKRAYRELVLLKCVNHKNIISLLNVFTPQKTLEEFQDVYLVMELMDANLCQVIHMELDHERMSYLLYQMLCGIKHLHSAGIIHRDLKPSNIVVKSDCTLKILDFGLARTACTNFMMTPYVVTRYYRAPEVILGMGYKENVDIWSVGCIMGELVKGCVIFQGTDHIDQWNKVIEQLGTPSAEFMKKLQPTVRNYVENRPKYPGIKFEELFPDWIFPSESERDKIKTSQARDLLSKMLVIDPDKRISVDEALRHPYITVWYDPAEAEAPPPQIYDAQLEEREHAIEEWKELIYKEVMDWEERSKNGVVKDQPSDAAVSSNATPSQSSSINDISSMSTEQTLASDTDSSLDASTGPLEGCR

Ask | Please report the recorded IC50 for CN(C)C/C=C/C(=O)Nc1cccc(C(=O)Nc2ccc(Nc3nccc(-c4c(-c5ccccc5)nn5ccccc45)n3)cc2)c1 .
Reply | 23 nM

Ask | # iterate: CN(C)C/C=C/C(=O)Nc1cccc(C(=O)Nc2ccc(Nc3nccc(/C(C#N)=C4\Nc5ccccc5S4)n3)cc2)c1
Reply | 490 nM

###

- Tested On: GCK (human) (UniProt Q12851)
- Sequence (Q12851 whole entry, looked up): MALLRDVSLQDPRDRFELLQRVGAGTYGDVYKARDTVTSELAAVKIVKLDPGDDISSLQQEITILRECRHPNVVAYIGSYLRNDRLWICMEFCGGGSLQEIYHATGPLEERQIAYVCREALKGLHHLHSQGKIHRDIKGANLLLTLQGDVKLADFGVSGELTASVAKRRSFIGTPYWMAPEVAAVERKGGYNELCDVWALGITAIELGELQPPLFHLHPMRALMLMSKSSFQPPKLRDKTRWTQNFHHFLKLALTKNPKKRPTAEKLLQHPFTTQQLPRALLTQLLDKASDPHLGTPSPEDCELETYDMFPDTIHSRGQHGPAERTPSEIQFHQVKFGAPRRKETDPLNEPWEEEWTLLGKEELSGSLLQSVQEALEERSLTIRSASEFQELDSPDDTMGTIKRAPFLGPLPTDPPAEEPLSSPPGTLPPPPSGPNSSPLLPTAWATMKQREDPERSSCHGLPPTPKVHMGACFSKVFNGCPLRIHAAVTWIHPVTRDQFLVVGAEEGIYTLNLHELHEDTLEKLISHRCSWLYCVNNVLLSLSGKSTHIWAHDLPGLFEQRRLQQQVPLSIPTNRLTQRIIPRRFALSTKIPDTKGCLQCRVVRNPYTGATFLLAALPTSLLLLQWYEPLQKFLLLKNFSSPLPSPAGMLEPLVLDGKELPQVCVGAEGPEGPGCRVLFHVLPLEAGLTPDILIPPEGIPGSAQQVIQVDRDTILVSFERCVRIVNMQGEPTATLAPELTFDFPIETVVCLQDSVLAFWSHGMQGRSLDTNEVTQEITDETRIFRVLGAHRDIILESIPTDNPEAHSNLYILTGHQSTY
Measured Quantity: IC50
The reply must contain the numeric value and, after it, the unit.

Ask | Could you share which IC50 value was measured for CN(C)C/C=C/C(=O)Nc1cccc(C(=O)Nc2ccc(Nc3nccc(-c4cccnc4)n3)cc2)c1 ?
Reply | 20.5 µM

###

- Tested On: PLK3 (human)
- Procedure Details: KINOMEscan competition binding
- Test Context: compound 1.0 µM
Measured Quantity: kinase still bound, per cent of control (%)
Just the number please, in %, no unit attached.

Ask | Value lookup for kinase still bound, per cent of control; key = CN(C)C/C=C/C(=O)Nc1cccc(C(=O)Nc2ccc(Nc3nccc(/C(C#N)=C4\Nc5ccccc5S4)n3)cc2)c1
Reply | 59

Ask | Consider next the compound CN(C)C/C=C/C(=O)Nc1cccc(C(=O)Nc2ccc(Nc3nccc(-c4cccnc4)n3)cc2)c1 in the same way.
Reply | 75

Ask | Entry to check: Cc1cc(NC(=O)c2cccc(NC(=O)/C=C/CN(C)C)c2)ccc1Nc1nccc(-c2cccnc2)n1
Reply | 66

Ask | # repeat for CN(C)C/C=C/C(=O)Nc1cccc(C(=O)Nc2ccc(Nc3nccc(-c4c(-c5ccccc5)nn5ccccc45)n3)cc2)c1
Reply | 100

###

- Tested On: MKNK1 (human) (UniProt Q9BUB5)
- Sequence (Q9BUB5 whole entry, looked up): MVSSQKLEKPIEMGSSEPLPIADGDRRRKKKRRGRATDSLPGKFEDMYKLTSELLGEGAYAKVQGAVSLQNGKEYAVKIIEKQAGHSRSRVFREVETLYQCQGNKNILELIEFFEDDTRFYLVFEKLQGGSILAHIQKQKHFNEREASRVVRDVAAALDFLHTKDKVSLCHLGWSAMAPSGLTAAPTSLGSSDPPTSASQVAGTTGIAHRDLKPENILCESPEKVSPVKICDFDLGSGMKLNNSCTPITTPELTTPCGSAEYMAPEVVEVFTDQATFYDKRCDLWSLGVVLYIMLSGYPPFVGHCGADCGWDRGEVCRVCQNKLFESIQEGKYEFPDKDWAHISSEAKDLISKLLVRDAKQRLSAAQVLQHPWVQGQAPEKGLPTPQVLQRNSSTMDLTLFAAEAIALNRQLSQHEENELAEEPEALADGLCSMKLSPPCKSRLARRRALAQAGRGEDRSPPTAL
- Procedure Details: KINOMEscan competition binding
- Test Context: compound 1.0 µM
Measured Quantity: kinase still bound, per cent of control (%)
Value expressed in %; do not type the unit.

Ask | State its kinase still bound, per cent of control on MKNK1 (human) (UniProt Q9BUB5): CN(C)C/C=C/C(=O)Nc1cccc(C(=O)Nc2ccc(Nc3nccc(/C(C#N)=C4\Nc5ccccc5S4)n3)cc2)c1
Reply | 100

Ask | And for Cc1cc(NC(=O)c2cccc(NC(=O)/C=C/CN(C)C)c2)ccc1Nc1nccc(-c2cccnc2)n1 ?
Reply | 81

Ask | Entry to check: CN(C)C/C=C/C(=O)Nc1cccc(C(=O)Nc2ccc(Nc3nccc(-c4c(-c5ccccc5)nn5ccccc45)n3)cc2)c1
Reply | 96

Ask | Repeat with CN(C)C/C=C/C(=O)Nc1cccc(C(=O)Nc2ccc(Nc3nccc(-c4cccnc4)n3)cc2)c1
Reply | 100
